The measured values listed here are drawn from the supplement of paper PMC8728848.

// reported glycan array binding signal (z-score) for each item listed
Biological target: GlcNAc(b1-6)GalNAc
Assay: glycan array binding signal (z-score within array); higher = stronger binding
Conditions: glycan notation: IUPAC condensed, linker removed
The full list was thinned out, with the strongest signals kept by preference.

Some binders with known glycan array binding signal (z-score) results, for comparison:
BINDER	glycan array binding signal (z-score)
Epa9 (Candida glabrata), CAGL0A01386g (protein) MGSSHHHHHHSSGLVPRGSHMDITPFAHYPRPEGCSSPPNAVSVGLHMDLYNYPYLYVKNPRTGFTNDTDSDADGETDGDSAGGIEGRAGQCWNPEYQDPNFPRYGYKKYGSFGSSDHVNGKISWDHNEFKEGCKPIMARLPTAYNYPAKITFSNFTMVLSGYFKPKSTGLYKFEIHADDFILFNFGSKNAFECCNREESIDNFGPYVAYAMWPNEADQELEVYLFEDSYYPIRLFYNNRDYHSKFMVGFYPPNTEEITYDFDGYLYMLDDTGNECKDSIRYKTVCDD	-0.467
RBMC2 (Vibrio cholerae) (protein) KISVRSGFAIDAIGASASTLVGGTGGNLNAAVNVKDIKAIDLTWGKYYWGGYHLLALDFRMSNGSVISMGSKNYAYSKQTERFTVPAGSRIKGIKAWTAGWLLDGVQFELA	-0.19

Then there is this binder:
Qu. Fill in glycan array binding signal (z-score) for record RBMC1 (Vibrio cholerae) (protein) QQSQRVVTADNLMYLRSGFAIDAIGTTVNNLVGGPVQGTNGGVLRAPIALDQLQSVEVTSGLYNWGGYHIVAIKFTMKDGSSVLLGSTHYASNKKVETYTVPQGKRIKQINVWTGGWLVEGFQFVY
Ans. -0.289
